# Experimental system: delF508-CFTR (Homo sapiens, UniProt P13569, DEL508-508)
# Construct: expressed in transfected cells
# Sequence (P13569 with tags, fused parts or gaps DEL508-508): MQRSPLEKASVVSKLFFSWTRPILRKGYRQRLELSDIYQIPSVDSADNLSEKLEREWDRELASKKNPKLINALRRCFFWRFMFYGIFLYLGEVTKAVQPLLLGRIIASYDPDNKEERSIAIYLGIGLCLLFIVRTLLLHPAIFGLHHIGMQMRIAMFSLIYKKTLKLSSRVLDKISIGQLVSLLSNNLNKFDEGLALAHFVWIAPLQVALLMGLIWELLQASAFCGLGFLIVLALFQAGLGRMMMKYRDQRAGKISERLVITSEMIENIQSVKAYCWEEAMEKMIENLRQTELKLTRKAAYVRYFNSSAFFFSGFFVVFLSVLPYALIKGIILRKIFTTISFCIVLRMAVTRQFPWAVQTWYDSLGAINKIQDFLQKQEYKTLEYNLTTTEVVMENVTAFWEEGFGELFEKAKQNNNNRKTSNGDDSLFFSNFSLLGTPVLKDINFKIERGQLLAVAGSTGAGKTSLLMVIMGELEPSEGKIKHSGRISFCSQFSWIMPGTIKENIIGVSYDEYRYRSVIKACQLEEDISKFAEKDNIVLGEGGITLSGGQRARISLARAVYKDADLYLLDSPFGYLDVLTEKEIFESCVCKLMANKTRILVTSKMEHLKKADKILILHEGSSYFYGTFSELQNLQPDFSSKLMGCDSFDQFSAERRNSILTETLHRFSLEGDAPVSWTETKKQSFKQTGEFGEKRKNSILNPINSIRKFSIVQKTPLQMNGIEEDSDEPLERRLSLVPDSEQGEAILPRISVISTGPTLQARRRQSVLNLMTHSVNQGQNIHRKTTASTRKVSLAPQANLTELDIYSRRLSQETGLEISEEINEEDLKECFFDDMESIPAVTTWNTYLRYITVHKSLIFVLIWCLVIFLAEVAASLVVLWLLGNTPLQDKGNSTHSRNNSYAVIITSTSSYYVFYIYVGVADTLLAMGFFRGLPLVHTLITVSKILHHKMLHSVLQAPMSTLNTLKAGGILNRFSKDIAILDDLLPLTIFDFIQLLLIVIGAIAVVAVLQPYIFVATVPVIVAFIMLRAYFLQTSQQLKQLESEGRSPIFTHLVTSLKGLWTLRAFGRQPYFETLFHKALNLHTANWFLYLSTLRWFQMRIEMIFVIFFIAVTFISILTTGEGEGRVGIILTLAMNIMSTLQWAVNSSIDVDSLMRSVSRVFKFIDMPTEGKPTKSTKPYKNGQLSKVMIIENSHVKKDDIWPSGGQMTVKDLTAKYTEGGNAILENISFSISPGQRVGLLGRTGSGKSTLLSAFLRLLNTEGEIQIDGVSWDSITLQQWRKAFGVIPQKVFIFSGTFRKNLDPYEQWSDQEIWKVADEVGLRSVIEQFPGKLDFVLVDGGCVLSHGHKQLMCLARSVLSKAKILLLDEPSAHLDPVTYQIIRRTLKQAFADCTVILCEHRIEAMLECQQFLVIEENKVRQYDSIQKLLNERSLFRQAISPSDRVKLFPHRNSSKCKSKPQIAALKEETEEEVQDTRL
# Method notes: delF508-CFTR functional activity in primary human bronchial epithelial cells (HBECs), Multi-Transepithelial Clamp Circuit (MTECC-24) assay
# Type: cell-based
# Measurement conditions: primary human delF508-CFTR bronchial epithelial cells, 24 h with compound, equivalent short circuit current (Ieq), forskolin plus potentiator; mean of at least two replicates; read-out: MTECC24-CFHBEC EC50
Quantity: EC50 (nM)
Report as a plain number; the unit nM is understood.

Param readout= EC50; system= delF508-CFTR (Homo sapiens, UniProt P13569, DEL508-508); entry= "Cc1ccc(F)cc1-c1nc(NS(=O)(=O)c2cccc(N(C)CCCCC(=O)O)n2)ccc1C(F)(F)F" ; returns value.
423

Further, for "CCc1ccc(F)cc1-c1nc(NS(=O)(=O)c2cccc(N(C)CCCC(=O)O)n2)ccc1C(F)(F)F" ?
40

Further, for "CCc1ccccc1-c1nc(NS(=O)(=O)c2cccc(N(CCCC(=O)O)C(C)C)n2)ccc1C(F)(F)F" ?
2

Further, for "Cc1ccccc1-c1nc(NS(=O)(=O)c2cccc(N(CCCC(=O)O)CCC(F)(F)F)n2)ccc1C(F)(F)F" ?
114

Further, for "CCCN(CCC(=O)O)c1cccc(S(=O)(=O)Nc2ccc(C(F)(F)F)c(-c3cc(F)ccc3C)n2)n1" ?
88

Further, for "CCN(CCCC(=O)O)c1cccc(S(=O)(=O)Nc2ccc(C(F)(F)F)c(-c3ccccc3C)n2)n1" ?
101

Further, for Cc1ccc(F)cc1-c1nc(NS(=O)(=O)c2cccc(N3CCC[C@](C)(CC(=O)O)C3)n2)ccc1C(F)(F)F (single isomer, unassigned) ?
31

Further, for Cc1ccccc1-c1nc(NS(=O)(=O)c2cccc(N3CCC[C@@H](CCC(=O)O)C3)n2)ccc1C(F)(F)F (single isomer, unassigned) ?
17

----------
# Experimental system: delF508-CFTR (Homo sapiens, UniProt P13569, DEL508-508)
# Construct: expressed in transfected cells
# Method notes: Measurement of delF508-CFTR-HRP surface expression in CFBE41o- cells
# Assay type: cell-based
# Measurement conditions: efficacy relative to reference compound 3-(6-(1-(2,2-difluorobenzo[d][1,3]dioxol-5-yl)cyclopropane-1-carboxamido)-3-methylpyridin-2-yl)benzoic acid; CFBE41o- cells, 24 h; read-out: DelF508-CFTR-HRP Amax %
Quantity: Emax (%)
Report as a plain number; the unit % is understood.

Need Emax of "Cc1ccccc1-c1nc(NS(=O)(=O)c2cccc(NCC(=O)O)n2)ccc1C(F)(F)F" , thanks.
60

Further, for Cc1ccccc1-c1nc(NS(=O)(=O)c2cccc(NC3CCCC(C(=O)O)C3)n2)ccc1C(F)(F)F (mixture of isomers) ?
361

Further, for "Cc1ccccc1-c1nc(NS(=O)(=O)c2cccc(NCCC(=O)O)n2)ccc1C(F)(F)F" ?
209

Further, for "CC(C)c1ccccc1-c1nc(NS(=O)(=O)c2cccc(N3CCC(OCC(=O)O)CC3)n2)ccc1C(F)(F)F" ?
443

Further, for "CCc1ccc(F)cc1-c1nc(NS(=O)(=O)c2cccc(N(CCC(=O)O)C3CC3)n2)ccc1C(F)(F)F" ?
715

Further, for "CC1(CC(=O)O)CCN(c2cccc(S(=O)(=O)Nc3ccc(C(F)(F)F)c(-c4ccccc4C(C)(C)C)n3)n2)CC1" ?
829

Further, for "CCN(CCC(=O)O)c1cccc(S(=O)(=O)Nc2ccc(C(F)(F)F)c(-c3cc(F)ccc3C)n2)n1" ?
736

Further, for Cc1ccccc1-c1nc(NS(=O)(=O)c2cccc(N3CCC(C)(CC(=O)O)C3)n2)ccc1C(F)(F)F (stereo not shown) ?
411

Further, for CC1(C(=O)O)CCCN(c2cccc(S(=O)(=O)Nc3ccc(Cl)c(-c4ccccc4-c4ccccc4)n3)n2)C1 (stereo not shown) ?
969

Further, for "Cc1ccccc1-c1nc(NS(=O)(=O)c2cccc(NCC3(C(=O)O)CC3)n2)ccc1C(F)(F)F" ?
415

Further, for "Cc1ccccc1-c1nc(NS(=O)(=O)c2cccc(N3CCC[C@H](CC(=O)O)C3)n2)ccc1C(F)(F)F" ?
920

Further, for "CC1(C(=O)O)CCN(c2cccc(S(=O)(=O)Nc3ccc(C(F)(F)F)c(-c4ccccc4Oc4ccccc4)n3)n2)CC1" ?
442

Further, for "O=C(O)CCCNc1cccc(S(=O)(=O)Nc2ccc(C(F)(F)F)c(-c3ccccc3C3CC3)n2)n1" ?
314

Further, for "Cc1ccccc1-c1nc(NS(=O)(=O)c2cccc(N3CCC(C(C)(C)C(=O)O)CC3)n2)ccc1C(F)(F)F" ?
266

Further, for "O=C(O)CCNc1cccc(S(=O)(=O)Nc2ccc(C(F)(F)F)c(-c3ccccc3C3CC3)n2)n1" ?
257

Further, for "Cc1ccccc1-c1nc(NS(=O)(=O)c2cccc(N3CCC(C)(CC(=O)O)CC3)n2)ccc1C(F)(F)F" ?
363

Further, for "Cc1ccccc1-c1nc(NS(=O)(=O)c2cccc(N3CCC(CC(=O)O)CC3)n2)ccc1C(F)(F)F" ?
283

Further, for "Cc1ccccc1-c1nc(NS(=O)(=O)c2cccc(N(CCC(=O)O)C3CC3)n2)ccc1C(F)(F)F" ?
563

Further, for "Cc1ccccc1-c1nc(NS(=O)(=O)c2cccc(NCC(C)(C)C(=O)O)n2)ccc1C(F)(F)F" ?
271

Further, for "CCCN(CCCC(=O)O)c1cccc(S(=O)(=O)Nc2ccc(Cl)c(-c3c(C)cccc3C)n2)n1" ?
589

Further, for "CC1(C(=O)O)CCN(c2cccc(S(=O)(=O)Nc3ccc(C(F)(F)F)c(-c4ccccc4-c4ccccc4)n3)n2)CC1" ?
973

Further, for "CN(CCC(=O)O)c1cccc(S(=O)(=O)Nc2ccc(C(F)(F)F)c(-c3ccccc3C3CC3)n2)n1" ?
742
